- targetOrTestSystem: T1, hu-sCD47-6His; extracellular domain of human CD47 antigen with 6His-tag (human)
- T1 construct: also called hCD47-his; soluble hCD47
- test: SPR Biacore T200, antibody captured, hCD47-his analyte;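 note: antibodies captured on anti-IgG (Fc) CM5 chip, five sequential 10 min antigen injections at rising concentrations, reference flow cell and antigen-free cycle as controls, 1:1 model fit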
propertyLabel: pKd
To interpret pKd, take it as minus log10 of a concentration measured in moles per litre.

Solved entries:
# binder, numericValue
measured = [
    ("B6H12 (mouse IgG1, Abcam) (antibody, V domains shown) VH: EVQLVESGGDLVKPGGSLKLSCAASGFTFSGYGMSWVRQTPDKRLEWVATITSGGTYTYYPDSVKGRFTISRDNAKNTLYLQIDSLKSEDTAIYFCARSLAGNAMDYWGQGTSVTVSS VL: DIVMTQSPATLSVTPGDRVSLSCRASQTISDYLHWYQQKSHESPRLLIKFASQSISGIPSRFSGSGSGSDFTLSINSVEPEDVGVYYCQNGHGFPRTFGGGTKLEIK", 8.29),
    ("Candidate 7 (VT008-AL5-10G7-10K7), mouse IgG (antibody, V domains shown) VH: QVQLQQPGAELVMPGSSVKLSCKTSGYTFTKYWMHWVKRRPGQGLEWIGEINPSDTYTNYNQKFKGKSTLTVDKSSSTAYMQLSSLTSEDSAVYFCARVATMVARGFAYWGQGTLVTVSA VL: DIVMTQSHKFMSTSVGDRVSITCKASQDVSGAVVWYQEKPGQSPNLLIYLATYRYTGVPDRFTGSGSGTDFTLTIRSVQAEDMAVYYCQQYYSIPWTFGGGTKLEIK", 8.71),
]

Pending binder:
// pKd value for Candidate 14 (VT008-AL6-14G1-16K1), mouse IgG (antibody, V domains shown, Recombinant mouse IgG2a or mIgG1 format, by assay) VH: QVQLQQPGAELVKPGASLRVSCKASGYTFTNYWMYWVRQRPGRGLEWIGWIDPNSGGTKYNEKFKSKATLTVDKPSSTAYMQLSSLTSEDSAVYNCARGGYTMDYWGQGTSVTVSS VL: DVVMTQTPLSLPVSLGDQASISCRASQSLVHSNGNTYLHWYLQKPGQSPKLLIYKVSNRFSGVPDRFSGSGSGTDFTLKISRVEAEDLGVYFCSQSTHVPLTFGAGTKLELK : 8.41
